system: UO-31; assay: AUC of dose-response viability curve, drug + dasatinib, normalised to DMSO (arbitrary (AUC of normalised viability)); higher = less growth inhibition; conditions: treatment: drug + dasatinib (fixed dose, not stated); 5 days
Catalogue of AUC of dose-response viability curve values
Number only, no unit.

{"columns": ["compound", "measurement.name", "measured"],
 "data": [
  ["Nc1cccc(-c2cc3c(Oc4cccc(O)c4)ncnc3[nH]2)c1 [TWS119] + Cc1nc(Nc2ncc(C(=O)Nc3c(C)cccc3Cl)s2)cc(N2CCN(CCO)CC2)n1", "AUC of dose-response viability curve", 3.25]
]}

# input compound: CCN1CCN(Cc2ccc(-c3cc4c(N[C@H](C)c5ccccc5)ncnc4[nH]3)cc2)CC1 [AEE788 (NVP-AEE788)] + Cc1nc(Nc2ncc(C(=O)Nc3c(C)cccc3Cl)s2)cc(N2CCN(CCO)CC2)n1 ; wanted: its AUC of dose-response viability curve
2.92
